Listing: reverse-splicing fitness of selected variants
B1: Azoarcus group I ribozyme (parent)
chain: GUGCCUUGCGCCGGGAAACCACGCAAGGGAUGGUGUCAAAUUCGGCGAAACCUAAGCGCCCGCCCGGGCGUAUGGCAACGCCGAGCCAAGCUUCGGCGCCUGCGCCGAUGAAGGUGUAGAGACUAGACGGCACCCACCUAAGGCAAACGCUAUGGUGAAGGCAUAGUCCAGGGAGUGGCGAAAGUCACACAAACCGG

Variants of: B1
Experimental protocol: reverse-splicing fitness (ratio to wild type); higher = more active; in vitro selection; Mg2+ level not given
Quantity name: reverse-splicing fitness

> print(dat)
                  variant.description  recorded.number
1        C82G A111G A120G C150G U176A           0.0085
2  C82G A111C A120C A145G C169G U176A           0.0188
3       A111U A120C A145U C150U C169G          0.00826
4              C82A A111C A145C C150A           0.0144
5  C82U A111U A120C A145U C169U U176G          0.00395
6       A111C A120U C150U C169G U176A          0.00676
